Just for reference, patent US20230219957A1 is where these values come from.

System: HCT116 p53−/−
Experiment: CellTiter-Glo (Cell-Titer glow) cytotoxicity assay
Type: cell-based, human
Conditions: Homo sapiens, HCT-116; forty-eight hours
endpointName: IC50 (µM)
Give just the number in µM; leave the unit off.

Looking up Cn1c(=O)c2[nH]c(Nc3ccccc3)nc2n(C)c1=O [CB002] , I see its IC50 listed as 161

* * *

Tested on: HCT116 p53 R175H
Test: CellTiter-Glo (Cell-Titer glow) cytotoxicity assay
Format: cell-based, human
Conditions: Homo sapiens, HCT-116; forty-eight hours
endpointName: IC50
Could you write the number and then its unit?

Looking up Cn1c(=O)c2[nH]c(Nc3ccccc3)nc2n(C)c1=O , I see its IC50 listed as 400 µM
